- experimental.target: DNA topoisomerase II (Homo sapiens) (UniProt P11388+Q02880)
- assay.remarks: Inhibition of topoisomerase 2 DNA cleavage activity
- Type: protein assay
Could you please report measured Inhibition for the items listed next?
Give bare numbers, in µM.

Below, each entry is followed by its recorded Inhibition result.
Cc1ccc(S(=O)(=O)n2cc3c4c2C(=O)c2c(-c5ccc(O)cc5)n[nH]c2C4=NCC3)cc1: 100
O=C1c2[nH]ncc2C2=NCCc3c[nH]c1c32: 100
Cn1ncc2c1C1=NCCc3c[nH]c(c31)C2=O: 100

// returns reported Inhibition for input COc1cc([C@@H]2c3cc4c(cc3[C@@H](O[C@@H]3O[C@@H]5CO[C@@H](C)O[C@H]5[C@H](O)[C@H]3O)[C@H]3COC(=O)[C@H]23)OCO4)cc(OC)c1O [ETOPOSIDE]
100

----------
- experimental.target: DNA topoisomerase II (Homo sapiens) (UniProt P11388+Q02880)
- assay.remarks: Inhibition of topoisomerase 2 DNA cleavage activity
- Assay type: protein assay
Could you please report measured Inhibition for the items listed next?

Below, each entry is followed by its recorded Inhibition result.
O=C1c2[nH]cc3c2C(=NCC3)c2n[nH]c(-c3ccc(O)cc3)c21: > 300 µM
O=C1c2c[nH]nc2C2=NCCc3c[nH]c1c32: 100 µM
Cc1ccc(S(=O)(=O)n2cc3c4c2C(=O)c2cnn(C)c2C4=NCC3)cc1: > 100 µM
Cc1ccc(S(=O)(=O)n2cc3c4c2C(=O)c2c(-c5ccccc5)n[nH]c2C4=NCC3)cc1: > 100 µM

// returns reported Inhibition for input O=C1c2n[nH]c(-c3ccc(O)cc3)c2C2=NCCc3c[nH]c1c32
100 µM

----------
- System: PC-3
- assay.remarks: Antiproliferative activity against human PC3 cell line
- Assay type: functional, cell-based
Could you please report measured IC50 for the items listed next?

Below, each entry is followed by its recorded IC50 result.
Cc1ccc(S(=O)(=O)n2cc3c4c2C(=O)c2c(cnn2C)C4=NCC3)cc1: 4.9 µM
CC[C@@]1(O)C(=O)OCc2c1cc1n(c2=O)Cc2cc3ccccc3nc2-1: 0.052 µM

Report IC50 for each item below.
1. COc1cc([C@@H]2c3cc4c(cc3[C@@H](O[C@@H]3O[C@@H]5CO[C@@H](C)O[C@H]5[C@H](O)[C@H]3O)[C@H]3COC(=O)[C@H]23)OCO4)cc(OC)c1O [ETOPOSIDE]
2. Cc1ccc(S(=O)(=O)n2cc3c4c2C(=O)c2c(n[nH]c2C2(O)C(=O)N(C)c5ccccc52)C4=NCC3)cc1 (stereo not given)
3. Cc1ccc(S(=O)(=O)n2cc3c4c2C(=O)c2cnn(C)c2C4=NCC3)cc1

1: 7.8 µM; 2: 5.2 µM; 3: 5.8 µM

----------
Could you please report measured inhibition at 10 µM for the items listed next?
- System: HT-29
- assay.remarks: Antiproliferative activity against human HT29 cell line at 10 uM
- Assay type: functional
Remember to follow the number with its unit.

O=C1c2c[nH]nc2C2=NCCc3c[nH]c1c32: 45%

Report inhibition at 10 µM for each item below.
1. O=C1c2[nH]ncc2C2=NCCc3c[nH]c1c32
2. O=C1c2[nH]cc3c2C(=NCC3)c2[nH]nc(-c3ccccc3)c21
3. Cn1ncc2c1C(=O)c1[nH]cc3c1C2=NCC3

1. 0%
2. 47%
3. 4%

Report inhibition at 10 µM for each item below.
1. O=C1c2[nH]cc3c2C(=NCC3)c2c(-c3ccccc3)n[nH]c21
2. O=C1c2n[nH]c(-c3ccc(O)cc3)c2C2=NCCc3c[nH]c1c32
3. Cc1ccc(S(=O)(=O)n2cc3c4c2C(=O)c2cn[nH]c2C4=NCC3)cc1
4. Cc1ccc(S(=O)(=O)n2cc3c4c2C(=O)c2n[nH]cc2C4=NCC3)cc1
5. Cc1ccc(S(=O)(=O)n2cc3c4c2C(=O)c2[nH]nc(-c5ccc(O)cc5)c2C4=NCC3)cc1
6. Cc1ccc(S(=O)(=O)n2cc3c4c2C(=O)c2[nH]nc(-c5ccccc5)c2C4=NCC3)cc1

1: 0%; 2: 0%; 3: 0%; 4: 0%; 5: 23%; 6: 0%
